Assayed target: AuroraB (h) (Homo sapiens, UniProt Q96GD4)
Sequence (Q96GD4 whole entry): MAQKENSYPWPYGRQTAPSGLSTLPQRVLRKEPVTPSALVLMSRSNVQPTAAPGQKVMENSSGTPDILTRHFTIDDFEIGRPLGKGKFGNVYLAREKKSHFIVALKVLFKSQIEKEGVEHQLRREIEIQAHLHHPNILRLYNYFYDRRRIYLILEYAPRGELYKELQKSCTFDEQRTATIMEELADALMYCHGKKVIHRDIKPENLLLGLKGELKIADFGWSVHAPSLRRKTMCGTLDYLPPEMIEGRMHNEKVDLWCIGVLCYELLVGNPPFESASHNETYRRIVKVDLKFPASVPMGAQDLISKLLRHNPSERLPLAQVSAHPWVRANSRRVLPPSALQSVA
Experiment summary: Aurora-B human kinase inhibition, SPA
Type: biochemical
Test context: read-out: AuroraB pIC50 (converted)
Reported property: IC50

Example cases with answers are listed next.
Smiles representation: CN1CCCNC(=O)[C@@H]2CCCN2Cc2cccc(c2)Nc2nccc(n2)-c2ccc(cc2)C1
Assay value: > 10 µM
--
Smiles representation: O=C1CN2CCN(CC2)Cc2cc(ccc2N2CCOCC2)Nc2nccc(n2)-c2cccc(c2)CN1
Assay value: > 10 µM
--
Smiles representation: CN1CCNC(=O)C2CCN(CC2)Cc2cc(Br)cc(c2)Nc2nccc(n2)-c2ccc(cc2)C1
Assay value: 6.31 µM
--
Smiles representation: O=C1CN2CCN(CC2)Cc2cc(ccc2N2CCOCC2)Nc2nccc(n2)-c2cccc(c2)OCCCN1
Assay value: > 10 µM

Return reported IC50 values for all items listed beneath this line.
1. CN1CCNC(=O)[C@H](CO)NCc2cccc(c2)Nc2nccc(n2)-c2ccc(cc2)C1
2. COc1ccc2cc1CN[C@@H](CO)C(=O)N(C)CCCN(C)c1ccc(cn1)-c1ccnc(n1)N2
3. COc1ccc2cc1CN(C)CCCNC(=O)[C@@H]1CCCN1Cc1cc(cc(NC(C)C)c1)Nc1nccc-2n1

**Result**
1. 7.08 µM
2. > 10 µM
3. > 10 µM

---

Assayed target: UniProtKB Q96GD4
Experiment summary: Aurora-B human kinase inhibition, SPA
Type: biochemical
Test context: read-out: AuroraB pIC50 (converted)
Procedure: The in vitro inhibition of a panel of kinases was assessed using either the scintillation proximity assay (SPA) as described by Cook, N. D. et al., Advances in Experimental Medicine and Biology (1991), 36; p. 525-528. In the SPA technology the activity of the kinase of interest is measured using an appropriate biotinylated substrate that is incubated with the aforementioned kinase protein in the presence of (^33P) radiolabeled ATP. […] The scintillation intensity is detected by imaging on Leadseeker. […]
I'd be grateful if you could share measured IC50 for these entries.

Example entries begin here.
Smiles representation: CN1CCC(NC(=O)c2cc3cc(c2)Nc2nccc(n2)-c2cccc(c2)CNC(=O)[C@@H]2CCCN2C3)CC1
IC50: > 10 µM
--
Smiles representation: CN1CCCNC(=O)C2CCN(CC2)Cc2cccc(c2)Nc2nccc(n2)-c2ccc(cc2)C1
IC50: > 10 µM
--
Smiles representation: O=C1NCCNc2cc(ccn2)-c2ccnc(n2)Nc2ccc(N3CCOCC3)c(c2)CN2CCC1CC2
IC50: 7.08 µM
--
Smiles representation: CN1CCCNC(=O)CN2CCN(CC2)Cc2cc(cc(N3CCOCC3)c2)Nc2nccc(n2)-c2ccc(cc2)C1
IC50: > 10 µM
--
Smiles representation: O=C1NCCNCc2ccc(cc2)-c2ccnc(n2)Nc2ccc(N3CCOCC3)c(c2)CN2CCC[C@@H]12
IC50: 9.55 µM

Continue with the next compound.
**Query** Give me measured IC50, please, for this compound: `COc1ccc2cc1CN(C)CCNC(=O)[C@@H]1CCCN1Cc1cccc(c1)Nc1nccc-2n1`
**Result** > 10 µM

---

Assayed target: UniProtKB Q96GD4
Experiment summary: Aurora-B human kinase inhibition, SPA
Assay type: biochemical
Test context: read-out: AuroraB pIC50 (converted)
Reported property: IC50

Molecule: COc1cc2cc(c1)Nc1nccc(n1)-c1ccc(OC)c(c1)CN(C)CCNC(=O)CN1CCN(CC1)C2
Reported property: IC50
Assay value: 2 µM
//
Molecule: COc1ccc2cc1CN(C)CCNC(=O)[C@H](C)NCc1cc(ccc1N1CCOCC1)Nc1nccc-2n1
Reported property: IC50
Assay value: > 10 µM
//
Molecule: CC(C)Nc1cc2cc(c1)Nc1nccc(n1)-c1ccc(cc1)CN(C)CCCNC(=O)[C@@H]1CCCN1C2
Reported property: IC50
Assay value: > 10 µM
//
Molecule: O=C1NCc2cccc(c2)-c2ccnc(n2)Nc2ccc(N3CCOCC3)c(c2)CN2C[C@@H](O)C[C@@H]12
Reported property: IC50
Assay value: > 10 µM
//
Molecule: O=C1NCc2cccc(c2)-c2ccnc(n2)Nc2ccc(N3CCOCC3)c(c2)CN[C@H]1Cc1ccccc1
Reported property: IC50
Assay value: > 10 µM
//
Molecule: COc1ccc2cc1CN(C)CCCNC(=O)CN1CCN(CC1)Cc1cc(Br)cc(c1)Nc1nccc-2n1
Reported property: IC50
Assay value: 7.94 µM
//
Molecule: O=C1NCCNc2cc(ccn2)-c2ccnc(n2)Nc2ccc(N3CCOCC3)c(c2)CN2CCCC12 (stereo not drawn)
Reported property: IC50
Assay value: 6.17 µM
//
Molecule: O=C1NCc2ccc(cc2)-c2ccnc(n2)Nc2ccc(N3CCOCC3)c(c2)CN2CCC1CC2
Reported property: IC50
Assay value: 2.29 µM

Please give IC50, item by item, for the list that follows.
1. CN1CCN(C)c2ccc(cn2)-c2ccnc(n2)Nc2cc(c3c(c2)OCO3)CN2CCC[C@H]2C1=O
2. O=C1CN2CCN(CC2)Cc2cccc(c2)Nc2nccc(n2)-c2ccnc(c2)CCCN1
3. COc1ccc2cc1CN(C)CCCNC(=O)[C@@H]1CCCN1Cc1cc(Br)cc(c1)Nc1nccc-2n1
4. CC(C)Nc1cc2cc(c1)Nc1nccc(n1)-c1ccc(cc1)CN(C)CCNC(=O)CN1CCN(CC1)C2
5. COc1cc2cc(c1)Nc1nccc(n1)-c1ccc(OC)c(c1)CN(C)CCNC(=O)C1CCN(CC1)C2
6. COc1ccc2cc1CN(C)CCNC(=O)C1CCN(CC1)Cc1cc(cc(NC(C)C)c1)Nc1nccc-2n1
7. CN1CCCNC(=O)[C@H](CO)NCc2cc(Br)cc(c2)Nc2nccc(n2)-c2ccc(cc2)C1

**Result**
["2.57 µM", "> 10 µM", "5.25 µM", "> 10 µM", "5.13 µM", "> 10 µM", "2.57 µM"]

List reported IC50 for each of these molecules:
1. O=C1NCCOc2ccc(cc2)-c2ccnc(n2)Nc2ccc(N3CCOCC3)c(c2)CN2CCC1CC2
2. O=C1NCc2cccc(c2)-c2ccnc(n2)Nc2cc(CNC3CCOCC3)cc(c2)CN2CCC[C@@H]12
3. COc1cc2cc(c1OC)CNC(=O)[C@H](CO)NCc1cccc(c1)-c1ccnc(n1)N2
4. COc1ccc2cc1CN1CCN(CC1)CC(=O)N(C)CCN(C)c1ccc(cn1)-c1ccnc(n1)N2
5. COc1ccc2cc1CNCCNC(=O)[C@@H]1C[C@@H](O)CN1Cc1cc(ccc1N1CCOCC1)Nc1nccc-2n1
6. CN1CCNC(=O)C2CCN(CC2)Cc2cccc(c2)Nc2nccc(n2)-c2ccc(cc2)C1
7. O=C1NCc2cccc(c2)-c2ccnc(n2)Nc2ccccc2CN2CCC[C@@H]12

**Result**
1: 1.66 µM; 2: > 10 µM; 3: 4.68 µM; 4: > 10 µM; 5: > 10 µM; 6: > 10 µM; 7: > 10 µM

Record IC50 per entry; entries follow.
1. O=C1NCc2cccc(c2)-c2ccnc(n2)Nc2cccc(c2)CN[C@H]1Cc1ccccc1
2. C[C@@H]1NCCc2cccc(c2)-c2ccnc(n2)Nc2ccc(N3CCOCC3)c(c2)CNC1=O
3. O=C1NCc2cccc(c2)-c2ccnc(n2)Nc2ccc(N3CCOCC3)c(c2)CN2CCC1CC2
4. O=C1NCCNCc2ccc(cc2)-c2ccnc(n2)Nc2ccc(N3CCOCC3)c(c2)CN[C@H]1CO
5. O=C1NCc2cccc(c2)-c2ccnc(n2)Nc2ccc(cc2)CN[C@H]1Cc1ccccc1
6. CN1CCN(C(=O)c2ccc3cc2CN2CCC[C@H]2C(=O)NCc2cccc(c2)-c2ccnc(n2)N3)CC1
7. COc1cc2cc(c1)Nc1nccc(n1)-c1ccc(OC)c(c1)CN(C)CCCNC(=O)[C@@H]1CCCN1C2
8. O=C1NCc2cccc(c2)-c2ccnc(n2)Nc2ccc(C(=O)N3CCOCC3)c(c2)CN2CCC[C@@H]12

**Result**
["> 10 µM", "> 10 µM", "> 10 µM", "> 10 µM", "> 10 µM", "> 10 µM", "> 10 µM", "> 10 µM"]
